tested on: LXRa homodimer (NR concentration 270 nM); assay: PBM binding z-score (relative to random genomic background probes); higher = stronger binding; sequences stand for … in GC…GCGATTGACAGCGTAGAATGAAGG
Reported PBM binding z-score is given for each of the following sequences.
Lab note: record the figure alone, no unit after it.

Here's what some known entries look like.
# seq, PBM binding z-score
records = [
    ("CAAACTAGGACACCGGAAGGTCAAAGTCCGCATG", 3.38),
    ("AGAACGAGGGCAATGAGTTTATAGCACGGGTGGC", -0.472),
    ("CCTATTAGTTGACCATAAGGGCAACCGGAGCTCG", 0.625),
    ("TCATATAGGTAAATCCTAGGTGAAAGTCCGATCT", -0.094),
    ("CCTTACGGGTCACGAGGATATAGCACGACGAGCG", 0.0313),
]

Let me know recorded PBM binding z-score for ATACCAAGCTGATCGTGAGGTCGTTGATACTAAC , thanks.
0.391
